The reported numbers originate from paper PMC4428838.

Can you tell me EC50 for the items I'm about to list?
# Test system: LNCaP
# procedure-summary: Proliferation assay in 2D monolayer culture (number of nuclei, Operetta high-content imager, 72 h)
# Type: cell-based
# condition-parameters: Homo sapiens, Harmony software, no unit in the table, μM, read-out: Estimated EC50 values for cell proliferation, LNCaP
Numbers only, in µM.

See these solved cases before continuing.
[[record]]
molecule = "CC(C)[C@@H]1CC[C@]2(C(=O)O)CC[C@]3(C)C(CCC4[C@@]5(C)Cc6cnoc6C(C)(C)C5CC[C@]43C)C12 (stereo partly drawn)"
study_system = "LNCaP"
number = 93.1

[[record]]
molecule = "C=C(C)[C@@H]1CC[C@]2(C(=O)O)CC[C@]3(C)C(CCC4[C@@]5(C)Cc6ncccc6C(C)(C)C5CC[C@]43C)C12 (stereo partly drawn)"
study_system = "LNCaP"
number = 132


Batch request: EC50 for each of the following molecules.
1. C=C(C)[C@@H]1CC[C@]2(C(=O)O)CC[C@]3(C)C(CCC4[C@@]5(C)Cc6c[nH]nc6C(C)(C)C5CC[C@]43C)C12 (stereo partly drawn)
2. C=C(C)[C@@H]1CC[C@]2(C(=O)O)CC[C@]3(C)C(CCC4[C@@]5(C)Cc6cnoc6C(C)(C)C5CC[C@]43C)C12 (stereo partly drawn)

6.4
64.6

Could I get EC50 for every one of these entries?
1. C=C(C)[C@@H]1CC[C@]2(C(=O)O)CC[C@]3(C)C(CCC4[C@@]5(C)Cc6cccnc6C(C)(C)C5CC[C@]43C)C12 (stereo partly drawn)
2. CC(=O)O[C@H]1C(=O)[C@@]2(C)[C@H]([C@H](OC(=O)c3ccccc3)[C@]3(O)C[C@H](OC(=O)[C@H](O)[C@@H](NC(=O)c4ccccc4)c4ccccc4)C(C)=C1C3(C)C)[C@]1(OC(C)=O)CO[C@@H]1C[C@@H]2O [Paclitaxel, paclitaxel, reference compound]

0.9
0.0006

###

# Tested on: LAPC-4
# procedure-summary: Secondary 3D screen (spheroid size, complexity, cell death)
# Format: cell-based
# condition-parameters: yellow and red clusters
measured-metric: efficacy in 3D LAPC-4 culture (dendrogram clusters)

[[record]]
molecule = "C=C(C)[C@@H]1CC[C@]2(C(=O)O)CC[C@]3(C)C(CCC4[C@@]5(C)Cc6c[nH]nc6C(C)(C)C5CC[C@]43C)C12 (some centres unmarked)"
result = "most active"

[[record]]
molecule = "C=C(C)[C@@H]1CC[C@]2(C(N)=O)CC[C@]3(C)C(CCC4[C@@]5(C)Cc6nccnc6C(C)(C)C5CC[C@]43C)C12 (some centres unmarked)"
result = "most active"

[[record]]
molecule = "C=C(C)[C@@H]1CC[C@]2(C(=O)O)CC[C@]3(C)C(CCC4[C@@]5(C)Cc6ncccc6C(C)(C)C5CC[C@]43C)C12 (some centres unmarked)"
result = "most active"


###

# Tested on: LAPC-4
# procedure-summary: Secondary 3D screen (spheroid size, complexity, cell death)
# Assay type: cell-based
# condition-parameters: yellow and red clusters
measured-metric: efficacy in 3D LAPC-4 culture (dendrogram clusters)

[[record]]
molecule = "CC(C)[C@@H]1CC[C@]2(C(=O)O)CC[C@]3(C)C(CCC4[C@@]5(C)CCC(=O)C(C)(C)C5CC[C@]43C)C12 (stereo partly shown) [Compound 3]"
result = "most active"

[[record]]
molecule = "CC(C)[C@@H]1CC[C@]2(C(=O)O)CC[C@]3(C)C(CCC4[C@@]5(C)Cc6cnoc6C(C)(C)C5CC[C@]43C)C12 (stereo partly shown) [Compound 4]"
result = "most active"

[[record]]
molecule = "C=C(C)[C@@H]1CC[C@]2(C(=O)O)CC[C@]3(C)C(CCC4[C@@]5(C)Cc6cccnc6C(C)(C)C5CC[C@]43C)C12 (stereo partly shown) [Compound 19]"
result = "most active"

